Molecular target: T1, His-Avidin-FKBP (wild-type FKBP) (biotinylated (residue not stated; construct carries an avi-tag))
T1 construct: also called biotinylated wild-type FKBP; biotinylated FKBP
T1 sequence (chain, as listed by the source limits assumed): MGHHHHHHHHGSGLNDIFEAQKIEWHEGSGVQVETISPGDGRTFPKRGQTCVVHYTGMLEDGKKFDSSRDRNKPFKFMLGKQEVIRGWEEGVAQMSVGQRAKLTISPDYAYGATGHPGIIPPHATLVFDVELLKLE
Assay: AlphaLISA direct assay: 30 nM Flag-FRB and 30 nM biotinylated FKBP; the titrated species is everolimus (EC50 is an everolimus concentration)
Measured Endpoint: pEC50
Would you please state pEC50, meaning minus log10 of the concentration in mol/L, as a bare number?

GET /value?item= His-FLAG-FRB E2032I (other, also called E20321 (OCR form)) MGHHHHHHHHGSDYKDDDDKGSASRILWHEMWHEGLIEASRLYFGERNVKGMFEVLEPLHAMMERGPQTLKETSFNQAYGRDLMEAQEWCRKYMKSGNVKDLTQAWDLYYHVFRRISKTS &field=pEC50 returns 8.61

GET /value?item= His-FLAG-FRB E2032L (other) MGHHHHHHHHGSDYKDDDDKGSASRILWHEMWHEGLLEASRLYFGERNVKGMFEVLEPLHAMMERGPQTLKETSFNQAYGRDLMEAQEWCRKYMKSGNVKDLTQAWDLYYHVFRRISKTS &field=pEC50 returns 8.67

GET /value?item= His-FLAG-FRB T2098L (other) MGHHHHHHHHGSDYKDDDDKGSASRILWHEMWHEGLEEASRLYFGERNVKGMFEVLEPLHAMMERGPQTLKETSFNQAYGRDLMEAQEWCRKYMKSGNVKDLLQAWDLYYHVFRRISKTS &field=pEC50 returns 8.84

GET /value?item= His-FLAG-FRB (wild-type FRB) (other, also called wild type Flag-FRB) MGHHHHHHHHGSDYKDDDDKGSASRILWHEMWHEGLEEASRLYFGERNVKGMFEVLEPLHAMMERGPQTLKETSFNQAYGRDLMEAQEWCRKYMKSGNVKDLTQAWDLYYHVFRRISKTS &field=pEC50 returns 8.41
